Tested on: K-562
Experiment notes: SRB colorimetric assay of cell growth and viability, K-562
Format: cell-based, human
Study conditions: K-562; 48 hours exposure; read-out: LC50 K-562
Protocol: The finality of this assay is to interrupt the growth of a “in vitro” tumor cell culture by means a continued exhibition of the cells to the sample to be testing. […] Cells are seeded in 96 well microtiter plates, at 5×10^3 cells per well in aliquots of 195 μL medium, and they are allowed to attach to the plate surface by growing in drug free medium for 18 hours. […] Optical densities are read on a automated spectrophotometric plate reader at a single wavelength of 490 nm. […]
Where a SMILES comes first, the peptide text is derived from it. Bridges are numbered along the chain shown (N, C = ends). [ ]: non-standard residue; d: D form. The star is where a group is joined. d(aIle) = CC[C@H](C)[C@@H](N)C(=O)O; d(aThr) = C[C@@H](O)[C@@H](N)C(=O)O; Hexanoyl(5-Me) = CC(C)CCCC(=O)*; Orn = NCCC[C@H](N)C(=O)O; Dhb = C/C=C(\N)C(=O)O
Measured parameter: CC50

Compound	Measured parameter	Data value
C/C=C1\NC(=O)[C@H](Cc2ccccc2)NC(=O)[C@@H](C(C)C)NC(=O)[C@@H]([C@@H](C)CC)NC(=O)[C@H](NC(=O)[C@H](NC(=O)[C@H](CCCN)NC(=O)[C@H]2CCCN2C(=O)[C@H](NC(=O)[C@@H](NC(=O)[C@H](Cc2ccccc2)NC(=O)[C@H](NC(=O)CCCC(C)C)C(C)C)C(C)C)C(C)C)[C@@H](C)CC)[C@@H](C)OC(=O)[C@H](C(C)C)NC1=O [Compound 114, [Phe^12]-KF] ({Hexanoyl(5-Me)}-[dV]FV[dV][dP][Orn][d(aIle)][d(aThr)][d(aIle)][dV]F[Dhb]V; ester 8-C)	CC50	4.03 µM

IN: Please report the recorded CC50 for C/C=C1\NC(=O)[C@H](Cc2ccccc2)NC(=O)[C@@H](C(C)C)NC(=O)[C@@H]([C@@H](C)CC)NC(=O)[C@H](NC(=O)[C@H](NC(=O)[C@H](CCCN)NC(=O)[C@@H]2CCCN2C(=O)[C@H](NC(=O)[C@@H](NC(=O)[C@@H](NC(=O)[C@H](NC(=O)CC[C@@H](C)CC)C(C)C)[C@@H](C)O)C(C)C)C(C)C)[C@@H](C)CC)[C@@H](C)OC(=O)[C@H](C(C)C)NC1=O [Compound 59, [Pro^9, (4S)-MeHex^14]-KF] .
OUT: ≥ 6.76 µM

---

Test system: IGROV-1
Experiment notes: SRB colorimetric assay of cell growth and viability, IGROV-1
Type: cell-based, human
Study conditions: 48 hours exposure
Where a SMILES comes first, the peptide text is derived from it. Bridges are numbered along the chain shown (N, C = ends). [ ]: non-standard residue; d: D form. The star is where a group is joined. d(aIle) = CC[C@H](C)[C@@H](N)C(=O)O; d(aThr) = C[C@@H](O)[C@@H](N)C(=O)O; Hexanoyl(5-Me) = CC(C)CCCC(=O)*; Orn = NCCC[C@H](N)C(=O)O; Dhb = C/C=C(\N)C(=O)O
Measured parameter: LC50 (concentration causing 50% net cell killing)

Please review the entries below; each comes with its answer.
Compound	Data value
CC[C@H](C)[C@@H](NC(=O)[C@H](CCCN)NC(=O)[C@H]1CCCN1C(=O)[C@H](NC(=O)[C@@H](NC(=O)[C@@H](NC(=O)[C@H](NC(=O)CCCC(C)C)C(C)C)[C@@H](C)O)C(C)C)C(C)C)C(=O)N[C@H]1C(=O)N[C@H]([C@@H](C)CC)C(=O)N[C@H](C(C)C)C(=O)N[C@@H](Cc2ccccc2)C(=O)NCC(=O)N[C@@H](C(C)C)C(=O)O[C@@H]1C [Compound 65, [Gly^2]-KF] ({Hexanoyl(5-Me)}-[dV]TV[dV][dP][Orn][d(aIle)][d(aThr)][d(aIle)][dV]FGV; ester 8-C)	4.96 µM
C/C=C1\NC(=O)[C@H](Cc2ccccc2)NC(=O)[C@@H](C(C)C)NC(=O)[C@@H]([C@@H](C)CC)NC(=O)[C@H](NC(=O)[C@H](NC(=O)[C@H](CCCN)NC(=O)[C@H]2CCCN2C(=O)[C@H](NC(=O)[C@@H](NC(=O)[C@@H](NC(=O)[C@@H](CC(C)C)NC(=O)CCCC(C)C)[C@@H](C)O)C(C)C)C(C)C)[C@@H](C)CC)[C@@H](C)OC(=O)[C@H](C(C)C)NC1=O [Compound 35, [D-Leu^13]-KF]	3.24 µM
C/C=C1\NC(=O)[C@H](Cc2ccccc2)NC(=O)[C@@H](C(C)C)NC(=O)[C@@H]([C@@H](C)CC)NC(=O)[C@H](NC(=O)[C@H](NC(=O)[C@H](CCCN)NC(=O)[C@H]2CCCN2C(=O)[C@H](NC(=O)[C@@H](NC(=O)[C@H](CCC(=O)O)NC(=O)CCCC(C)C)C(C)C)C(C)C)[C@@H](C)CC)[C@@H](C)OC(=O)[C@H](C(C)C)NC1=O [Compound 56, [Glu^12, noD-Val^13]-KF] ({Hexanoyl(5-Me)}-EV[dV][dP][Orn][d(aIle)][d(aThr)][d(aIle)][dV]F[Dhb]V; ester 7-C)	≥ 7.11 µM

IN: I'd like to know its LC50 (concentration causing 50% net cell killing). The compound in question is C/C=C1\NC(=O)[C@H](Cc2ccccc2)NC(=O)[C@@H](C(C)C)NC(=O)[C@@H]([C@@H](C)CC)NC(=O)[C@H](NC(=O)[C@H](NC(=O)[C@H](CCCN)NC(=O)[C@H]2CCCN2C(=O)[C@H](NC(=O)[C@H](CC(C)C)NC(=O)[C@@H](NC(=O)[C@H](NC(=O)CCCC(C)C)C(C)C)[C@@H](C)O)C(C)C)[C@@H](C)CC)[C@@H](C)OC(=O)[C@H](C(C)C)NC1=O [Compound 45, [Leu^11]-KF] ({Hexanoyl(5-Me)}-[dV]TL[dV][dP][Orn][d(aIle)][d(aThr)][d(aIle)][dV]F[Dhb]V; ester 8-C)
OUT: 4.02 µM

---

This listing pairs molecules with measured TGI MEL-28.
Tested on: SK-MEL-28
Experiment notes: SRB colorimetric assay of cell growth and viability, SK-MEL-28
Assay type: cell-based, human
Study conditions: 48 hours exposure
Where a SMILES comes first, the peptide text is derived from it. Bridges are numbered along the chain shown (N, C = ends). [ ]: non-standard residue; d: D form. The star is where a group is joined. d(aIle) = CC[C@H](C)[C@@H](N)C(=O)O; d(aThr) = C[C@@H](O)[C@@H](N)C(=O)O; Myristoyl = CCCCCCCCCCCCCC(=O)*; Orn = NCCC[C@H](N)C(=O)O; Dhb = C/C=C(\N)C(=O)O
Reply with a number, then the unit it belongs to.

Molecule	Data value
C/C=C1\NC(=O)[C@H](Cc2ccccc2)NC(=O)[C@@H](C(C)C)NC(=O)[C@@H]([C@@H](C)CC)NC(=O)[C@H](NC(=O)[C@H](NC(=O)[C@H](CCCN)NC(=O)[C@H]2CCCN2C(=O)[C@H](NC(=O)[C@@H](NC(=O)[C@@H](NC(=O)[C@H](NC(=O)CCCC(C)C)[C@H](C)O)[C@@H](C)O)C(C)C)C(C)C)[C@@H](C)CC)[C@@H](C)OC(=O)[C@H](C(C)C)NC1=O [Compound 41, [D-Thr^13]-KF]	2.20E−06 Molar

Here's the next entry for you.
IN: Param readout= TGI MEL-28; system= SK-MEL-28; entry= C/C=C1\NC(=O)[C@H](Cc2ccccc2)NC(=O)[C@@H](C(C)C)NC(=O)[C@@H]([C@@H](C)CC)NC(=O)[C@H](NC(=O)[C@H](NC(=O)[C@H](CCCN)NC(=O)[C@H]2CCCN2C(=O)[C@H](NC(=O)CCCCCCCCCCCCC)C(C)C)[C@@H](C)CC)[C@@H](C)OC(=O)[C@H](C(C)C)NC1=O [Compound 32] (Myristoyl-[dV][dP][Orn][d(aIle)][d(aThr)][d(aIle)][dV]F[Dhb]V; ester 5-C) ; returns value.
OUT: 3.63E−06 Molar

---

Tested on: IGROV-1
Experiment notes: SRB colorimetric assay of cell growth and viability, IGROV-1
Assay type: cell-based, human
Study conditions: 48 hours exposure
Where a SMILES comes first, the peptide text is derived from it. Bridges are numbered along the chain shown (N, C = ends). [ ]: non-standard residue; d: D form. The star is where a group is joined. d(aIle) = CC[C@H](C)[C@@H](N)C(=O)O; Hexanoyl(5-Me) = CC(C)CCCC(=O)*; Orn = NCCC[C@H](N)C(=O)O; Dhb = C/C=C(\N)C(=O)O
Here, each record is paired with measured LC50 (concentration causing 50% net cell killing) data.
Entry rule: numbers only, all in µM.

IN: Please look up its LC50 (concentration causing 50% net cell killing): C/C=C1\NC(=O)[C@H](Cc2ccccc2)NC(=O)[C@@H](C(C)C)NC(=O)[C@@H]([C@@H](C)CC)NC(=O)[C@H](NC(=O)[C@H](NC(=O)[C@H](CCCN)NC(=O)[C@H]2CCCN2C(=O)[C@H](NC(=O)[C@@H](NC(=O)[C@@H](NC(=O)[C@@H](C)NC(=O)CCCC(C)C)[C@@H](C)O)C(C)C)C(C)C)[C@@H](C)CC)[C@@H](C)OC(=O)[C@H](C(C)C)NC1=O [Compound 34, [D-Ala^13]-KF]
OUT: 4.03

IN: Given the compound C/C=C1\NC(=O)[C@H](Cc2ccccc2)NC(=O)[C@@H](C(C)C)NC(=O)[C@@H]([C@@H](C)CC)NC(=O)[C@H](NC(=O)[C@H](NC(=O)[C@H](CCCN)NC(=O)[C@H]2CCCN2C(=O)[C@H](NC(=O)[C@@H](NC(=O)[C@@H](NC(=O)[C@H](NC(=O)CCCC(C)C)C(C)C)[C@@H](C)O)C(C)C)C(C)C)[C@@H](C)CC)COC(=O)[C@H](C(C)C)NC1=O [Compound 3, [D-Ser^6]-KF] ({Hexanoyl(5-Me)}-[dV]TV[dV][dP][Orn][d(aIle)][dS][d(aIle)][dV]F[Dhb]V; ester 8-C) , what is its reported LC50 (concentration causing 50% net cell killing)?
OUT: 3.16

Ref: patent US20070117743A1
